The measurements presented in this section are drawn from ChEMBL document CHEMBL1144613.

# protocol.summary: Cmax in rat at 1 mg/kg, iv or 2 mg/kg, po
# Type: ADME, organism-based
# conditions: in vivo
observable: Cmax

Inquiry: Field request: Cmax | item: `C[C@H](NS(=O)(=O)c1cccc(-c2ccccc2)c1)[C@@H](Cc1ccc(Cl)cc1)c1cccc(C#N)c1`
Reply text: 343 nM

###

# protocol.summary: Ratio of drug level in brain to plasma in rat at 1 mg/kg, iv at 1 h
# Format: ADME, organism-based
# Design: dose 1 mg/kg, route intravenous
observable: Kp at 1 h

Inquiry: Field request: Kp at 1 h | item: `C[C@H](NS(=O)(=O)c1cccc(-c2ccccc2)c1)[C@@H](Cc1ccc(Cl)cc1)c1cccc(C#N)c1`
Reply text: 0.82
